Origin of measurements: ChEMBL document CHEMBL5303304

System: Fibroblast
method: Incucyte cell viability with human fibroblast; also: unitless GR value; below 1 slowed growth and below 0 cell loss
Type: toxicity, cell-based
applied-conditions: 24 h, 10 µM, compound concentration 10 uM, replicate number 2
In this section, each of the compounds is paired with its reported Growth Rate.
Just the number, please.

Solved cases below.
O=C1Nc2ccc(C(=O)c3ccco3)cc2C1=Cc1cc(Cl)c(O)c(Cl)c1 [GW406108X] | 0.64
N#Cc1ccc(COc2ccc(Br)cc2CNCCO)cn1.O=CO | 0.89
COc1cc(C(=O)N2CC[C@@H](O)[C@@H](N)C2)cc2nc(-c3cc4ccccc4n3CC3CC3)n(C)c12.Cl | 0.27
CNc1nc(-c2cc(C(=O)N3CCN(Cc4ccc(Cl)cc4)CC3)c(Cl)cn2)cs1 | 0.18

Alright, here's another compound for you.
Query Cc1ccc(NC(=O)c2ccc3c(c2)OCCO3)cc1NC(=O)c1ccc2nc(OCCN3CCCC3)ccc2c1 yields Growth Rate of -0.05
